- Test system: NCI-H322M lung
- TEST_DESCRIPTION: NCI-60 one-dose screen, 48 h (100 = growth as untreated, 0 = no growth, -100 = all killed)
- TEST_CONDITIONS: 10 µM unless noted
- Description: Growth inhibition of the NCI-H322M human Non-Small Cell Lung tumor cell line is measured as a screen for anti-cancer activity. Cells are grown in 96 well plates and exposed to the test compound for 48 hours. Compounds are tested at a single concentration, which is 10^-5 M for most compounds. The reported endpoint is percent growth (GI% or GIPRCNT), where numbers from 0 - 100% represent growth inhibition, and numbers from -100% - 0 represent cell death. […]
The panel holds about 83,000 compounds, 20% with a hit somewhere; the sample as a whole holds those more often. Active and inactive are the calls of the source. How the source made its calls: active means growth percent below 10; inactive means the rest.
ASSAY_ENDPOINT: growth

Previously resolved entries follow.
COc1ccc(Cn2cc3c(c2-c2cc(OC)c(OC)c(OC)c2)CCCc2cnoc2-3)cc1N :: 46.3% (inactive)
CC1(C)CC[C@]2(C(=O)O)CC[C@]3(C)C(=CCC4[C@@]5(C)C[C@@H](O)[C@@H]6OC(c7cccc([N+](=O)[O-])c7)OC[C@@]6(C)C5CC[C@]43C)C2C1 (stereo partly drawn) :: 41.7% (inactive)
Cc1cc(O)c(=O)cc2c1C[C@H]1CC(C)(C)/C=C/C[C@]3(C)Oc4cc(=O)c(O)cc(C)c4C[C@H]3C[C@H](O)[C@@]1(C)O2 :: 16% (inactive)
COc1cc(CNC(=O)Cc2ccccc2[N+](=O)[O-])ccc1OCC(=O)NO :: 107% (inactive)
O=C(/C=C1\C=CN(CCCCF)c2ccccc21)n1ccc2ccccc21 :: 93.3% (inactive)

# get_value(readout='growth', item= `COc1ccc(-c2ccnc3c(C#N)c(Nc4ccccc4)nn23)cc1OC` ) 91.2% (inactive)

# get_value(readout='growth', item= `CC(=O)NC(C)(C)C(=O)N1CCC[C@H]1C(=O)NC(C)(C)C(=O)N[C@@H](C)C(=O)NC(C)(C)C(=O)NC(C)(C)C(=O)N[C@@H](CCC(N)=O)C(=O)NC(C)(C)C(=O)N[C@H](C(=O)NC(C)(C)C(=O)NCC(=O)N[C@@H](CC(C)C)C(=O)NC(C)(C)C(=O)N1CCC[C@H]1C(=O)N[C@H](C(=O)NC(C)(C)C(=O)NC(C)(C)C(=O)N[C@@H](CCC(N)=O)C(=O)N[C@@H](CCC(N)=O)C(=O)N[C@H](CO)Cc1ccccc1)C(C)C)C(C)C` ) 71.1% [4.25 µM] (inactive)

# get_value(readout='growth', item= `N/C(=N\OC(=O)CSc1nc2ccccc2s1)c1ccc(Cl)cc1` ) 101% (inactive)

# get_value(readout='growth', item= `IP(CCCSc1n(Cc2ccc3ccccc3c2)c(-c2ccccc2)c(-c2ccccc2)[n+]1Cc1ccc2ccccc2c1)(c1ccccc1)(c1ccccc1)c1ccccc1` ) 63.5% (inactive)

# get_value(readout='growth', item= `COc1cc(/C=N/n2cnc3oc(-c4ccccc4)cc3c2=N)cc(CN2CCOCC2)c1O` ) 97.5% (inactive)

# get_value(readout='growth', item= CCC(CC)n1c(=O)c(SC2=NC3C(NN2)N(CC)C(=O)N3CC)c(C(=O)O)c2ccccc21 (stereo not drawn) ) 54.7% (inactive)

# get_value(readout='growth', item= `Clc1ccc(-c2csc(N/N=C/c3nc4ccccc4n3C3CC3)n2)cc1` ) 98.5% (inactive)

# get_value(readout='growth', item= CC(C)=CCC[C@](C)(O)[C@H]1CC[C@]2(C)[C@@H]1CC[C@@H]1[C@@]3(C)CCC(NC(=O)c4ccccc4C(=O)O)C(C)(C)[C@@H]3CC[C@]12C (stereo partly drawn) ) 104% (inactive)
